For each of the compounds below, state its melting point.

| compound structure | value observed |
| --- | --- |
| CCC(CC)(c1ccc2nc(C(F)(F)F)[nH]c2c1)c1c[nH]c2c(NS(C)(=O)=O)cccc12 | 225 to 235 °C |
| CCC(CC)(c1ccc2nc(N)sc2c1)c1c[nH]c2c(NS(C)(=O)=O)cccc12 | 155 to 160 °C |
| CCC(CC)(c1ccc(F)cc1F)c1c[nH]c2c(NS(C)(=O)=O)cccc12 | 144 to 147 °C |
| CCC(CC)(c1ccc2[nH]ccc2c1)c1c[nH]c2c(NS(C)(=O)=O)cccc12 | 115 to 120 °C |
| CCC(CC)(c1ccc2nc(C)oc2c1)c1c[nH]c2c(NS(C)(=O)=O)cccc12 | 98 to 105 °C |
| CCC(CC)(c1ccc2nc(Cl)sc2c1)c1c[nH]c2c(NS(C)(=O)=O)cccc12 | 180 to 190 °C |
| CCC(CC)(c1ccc2sc(NC(C)=O)nc2c1)c1c[nH]c2c(NS(C)(=O)=O)cccc12 | 266 to 268 °C |
| CCC(CC)(c1ccc2sc(C)nc2c1)c1c[nH]c2c(NS(C)(=O)=O)cccc12 | 112 to 117 °C |

Give measured melting point for every item shown.
1. CCC(CC)(c1ccc2ccsc2c1)c1c[nH]c2c(NS(C)(=O)=O)cccc12
2. CCC(CC)(c1ccc2sccc2c1)c1c[nH]c2c(NS(C)(=O)=O)cccc12
3. CCC(CC)(c1ccc2sc(N)nc2c1)c1c[nH]c2c(NS(C)(=O)=O)cccc12
4. CCC(CC)(c1ccc2nc(C)[nH]c2c1)c1c[nH]c2c(NS(C)(=O)=O)cccc12
5. CCC(CC)(c1ccc2[nH]nnc2c1)c1c[nH]c2c(NS(C)(=O)=O)cccc12
6. CCC(CC)(c1ccc2ccn(C(C)=O)c2c1)c1c[nH]c2c(NS(C)(=O)=O)cccc12
7. CCC(CC)(c1ccc2[nH]ncc2c1)c1c[nH]c2c(NS(C)(=O)=O)cccc12

["97 to 107 °C", "85 to 95 °C", "260 to 263 °C (dec.)", "188 to 192 °C", "165 to 172 °C", "216 to 218 °C", "123 to 128 °C"]

Reported melting point for CCC(CC)(c1ccc2onc(N)c2c1)c1c[nH]c2c(NS(C)(=O)=O)cccc12 : what is it?
155 to 161 °C

* * *

Molecular target: glucocorticoid receptor (Homo sapiens, UniProt P04150)
Construct: containing 50-200 ug of A549 cell extract and 1.86 nM; host or cells: A549 human lung epithelial cells
Experiment: Glucocorticoid Receptor Binding Assay (Method 1), [3H]-dexamethasone competition, A549 cell extract
Settings: 1.86 nM [3H]-dexamethasone, read-out: GR Ki (nM) Method 1
property measured: Ki

Previously resolved entries follow.
| molecule | property measured | value observed |
| --- | --- | --- |
| COc1ccc(C(C)(c2c[nH]c3c(C)cccc23)C2CC2)cc1 (stereo not drawn) | Ki | < 500 nM |
| CCCC(C)(c1ccc(OC(F)(F)F)cc1)c1c[nH]c2c(N)cccc12 (stereo not drawn) | Ki | < 10000 nM |
| CCC(CC)(c1ccc(C)cc1F)c1c[nH]c2c(NS(C)(=O)=O)cccc12 | Ki | < 500 nM |
| CCC(CC)(c1ccc(C)cc1)c1c[nH]c2c(NS(C)(=O)=O)cccc12 | Ki | < 500 nM |
| CCC(CC)(c1ccc(Cl)cc1)c1c[nH]c2c(NS(C)(=O)=O)cccc12 | Ki | < 500 nM |
| COc1ccc(C(C)(C)c2c[nH]c3c(NS(C)(=O)=O)cccc23)cc1 | Ki | < 500 nM |

Give measured Ki for every item shown.
1. CCCC(C)(c1ccc(OC)cc1)c1c[nH]c2c(CC)cccc12 (stereo not drawn)
2. O=C(O)CCn1cc(C(c2ccccc2)(c2ccccc2)c2ccccc2)c2ccccc21
3. CCCC(C)(c1ccsc1)c1c[nH]c2c(NS(C)(=O)=O)cccc12 (stereo not drawn)

1: < 500 nM; 2: < 10000 nM; 3: < 500 nM

* * *

For each of the molecules below, state its Ki.
Biological target: glucocorticoid receptor (Homo sapiens)
Construct: containing 50-200 ug of A549 cell extract and 1.86 nM; host or cells: A549 human lung epithelial cells
Experiment: Glucocorticoid Receptor Binding Assay (Method 1), [3H]-dexamethasone competition, A549 cell extract
Settings: 1.86 nM [3H]-dexamethasone, read-out: GR Ki (nM) Method 1

Previously resolved entries follow.
| molecule | value observed |
| --- | --- |
| CCC(CC)(c1ccc(O)cc1)c1c[nH]c2c(NS(C)(=O)=O)cccc12 | < 500 nM |
| CCCC(C)(c1ccc(C)cc1)c1c[nH]c2c(NS(C)(=O)=O)cccc12 (stereo not shown) | < 500 nM |
| CCC(CC)(c1cc2cc(Cl)ccc2o1)c1c[nH]c2c(NS(C)(=O)=O)cccc12 | < 10000 nM |

Proceeding to the next molecule to report its Ki.
Reported Ki for CCC(CC)(c1cc2cccc(OC)c2o1)c1c[nH]c2c(NS(C)(=O)=O)cccc12 : what is it?
< 500 nM

* * *

property measured: melting point

| molecule | melting point |
| --- | --- |
| CCC(CC)(c1ccc2[nH]cnc2c1)c1c[nH]c2c(NS(C)(=O)=O)cccc12 [Example 134] | 150 to 165 °C |
| CCC(CC)(c1ccc2c(c1)nc(C)n2C)c1c[nH]c2c(NS(C)(=O)=O)cccc12 [Example 162] | 275 to 278 °C |
| CCC(CC)(c1ccc2ncsc2c1)c1c[nH]c2c(NS(C)(=O)=O)cccc12 [Example 149] | 117 to 120 °C |
| CCC(CC)(c1ccc2ocnc2c1)c1c[nH]c2c(NS(C)(=O)=O)cccc12 [Example 146] | 132 to 135 °C |

Reported melting point for CCC(CC)(c1ccc2ncoc2c1)c1c[nH]c2c(NS(C)(=O)=O)cccc12 [Example 137] : what is it?
211 to 213 °C

* * *

Target: glucocorticoid receptor (Homo sapiens, UniProt P04150)
Construct: containing 50-200 ug of A549 cell extract and 1.86 nM; host or cells: A549 human lung epithelial cells
Experiment: Glucocorticoid Receptor Binding Assay (Method 1), [3H]-dexamethasone competition, A549 cell extract
Details: 1.86 nM [3H]-dexamethasone, read-out: GR Ki (nM) Method 1
property measured: Ki

Give measured Ki for every item shown.
1. CCC(CC)(c1ccc(C)cc1C)c1c[nH]c2c(NS(C)(=O)=O)cccc12
2. Cc1ccc(C(C)(C)c2c[nH]c3c(NS(C)(=O)=O)cccc23)cc1
3. CCCC(C)(c1ccc(OC)cc1)c1c[nH]c2c(NS(C)(=O)=O)cccc12 (stereo not drawn)

1: < 500 nM; 2: < 500 nM; 3: < 500 nM

* * *

Biological target: glucocorticoid receptor (Homo sapiens)
Construct: containing 50-200 ug of A549 cell extract and 1.86 nM; host or cells: A549 human lung epithelial cells
Sequence (P04150 1-777): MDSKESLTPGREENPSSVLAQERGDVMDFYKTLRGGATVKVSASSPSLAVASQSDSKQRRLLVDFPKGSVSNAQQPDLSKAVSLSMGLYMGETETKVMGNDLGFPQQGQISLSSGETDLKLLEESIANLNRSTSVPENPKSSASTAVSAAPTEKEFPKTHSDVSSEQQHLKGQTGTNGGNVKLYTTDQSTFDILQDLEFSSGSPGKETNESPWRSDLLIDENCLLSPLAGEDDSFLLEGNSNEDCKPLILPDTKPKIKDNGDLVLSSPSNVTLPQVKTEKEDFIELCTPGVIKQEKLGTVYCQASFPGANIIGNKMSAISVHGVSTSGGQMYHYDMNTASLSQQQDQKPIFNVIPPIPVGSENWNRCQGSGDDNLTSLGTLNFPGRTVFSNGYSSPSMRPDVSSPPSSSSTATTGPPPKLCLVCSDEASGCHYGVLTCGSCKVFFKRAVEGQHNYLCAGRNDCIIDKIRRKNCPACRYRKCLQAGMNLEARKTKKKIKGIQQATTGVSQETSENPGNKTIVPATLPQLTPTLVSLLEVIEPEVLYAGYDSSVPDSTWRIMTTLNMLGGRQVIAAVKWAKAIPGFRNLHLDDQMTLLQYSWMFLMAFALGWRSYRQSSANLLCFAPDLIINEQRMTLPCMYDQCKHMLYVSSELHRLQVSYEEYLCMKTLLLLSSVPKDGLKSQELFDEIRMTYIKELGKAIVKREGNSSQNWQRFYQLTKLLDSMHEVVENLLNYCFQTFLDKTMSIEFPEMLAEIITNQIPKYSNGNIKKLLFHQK
Experiment: Glucocorticoid Receptor Binding Assay (Method 1), [3H]-dexamethasone competition, A549 cell extract
Details: 1.86 nM [3H]-dexamethasone, read-out: GR Ki (nM) Method 1
property measured: Ki

Previously resolved entries follow.
| compound | Ki |
| --- | --- |
| CC(C)(c1cc2ccccc2s1)c1c[nH]c2c(NS(C)(=O)=O)cccc12 | < 1000 nM |
| CCC(CC)(c1cccs1)c1c[nH]c2c(NS(C)(=O)=O)cccc12 | < 500 nM |
| CCC(CC)(c1ccc(OCc2ccccc2)cc1)c1c[nH]c2c(NS(C)(=O)=O)cccc12 | < 500 nM |
| CS(=O)(=O)Nc1cccc2c(C3(c4ccccc4)CCCCC3)c[nH]c12 | < 1000 nM |
| CC(C)(c1ccccc1)c1c[nH]c2c(NS(C)(=O)=O)cccc12 | < 500 nM |

Give measured Ki for every item shown.
1. CCCC(C)(c1ccc(OC(F)(F)F)cc1)c1c[nH]c2c(NS(C)(=O)=O)cccc12 (centres unmarked)
2. CCC(C)(c1ccc(OC)cc1)c1c[nH]c2c(C)cccc12 (centres unmarked)
3. CCC(CC)(c1ccc(C)c(C)c1)c1c[nH]c2c(NS(C)(=O)=O)cccc12
4. CCc1cccc2c(C(C)(c3ccccc3)c3ccc(OC)cc3)c[nH]c12 (centres unmarked)
5. CC(c1ccc(F)cc1)(c1c[nH]c2c(NS(C)(=O)=O)cccc12)C1CC1 (centres unmarked)

1: < 1000 nM; 2: < 500 nM; 3: < 500 nM; 4: < 500 nM; 5: < 500 nM

Reported Ki for CCCC(CCC)(c1ccc(OC)cc1)c1c[nH]c2c(NS(C)(=O)=O)cccc12 : what is it?
< 500 nM
